target entity: T1, recombinant mouse DLL4 (C-terminally His-tagged extracellular domain, R&D Systems) (mouse, UniProt Q9JI71 27-532)
T1 construct: extracellular domain; also called rmDLL4; mDLL4
T1 sequence (Q9JI71 27-532): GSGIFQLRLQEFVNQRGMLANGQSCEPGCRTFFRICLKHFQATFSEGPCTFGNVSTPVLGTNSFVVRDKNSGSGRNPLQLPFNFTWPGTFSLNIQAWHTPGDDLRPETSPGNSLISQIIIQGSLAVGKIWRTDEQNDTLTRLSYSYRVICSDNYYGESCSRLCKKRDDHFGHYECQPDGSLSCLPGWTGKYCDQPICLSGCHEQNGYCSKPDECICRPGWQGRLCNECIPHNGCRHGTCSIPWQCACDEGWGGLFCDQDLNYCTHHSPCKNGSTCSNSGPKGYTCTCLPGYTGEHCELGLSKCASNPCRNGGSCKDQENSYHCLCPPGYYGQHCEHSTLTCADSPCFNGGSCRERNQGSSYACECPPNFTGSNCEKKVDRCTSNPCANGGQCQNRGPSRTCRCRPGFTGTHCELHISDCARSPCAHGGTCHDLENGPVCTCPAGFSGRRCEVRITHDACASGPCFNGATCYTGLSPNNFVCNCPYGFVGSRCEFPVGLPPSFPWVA
method notes: SPR (Biacore), rmDLL4
endpoint label: Kd
Please answer using the number first and the unit second.

# count of solved cases: 3
DLLBII129D08 (VHH, not shown: small tags and cut ends) VHH: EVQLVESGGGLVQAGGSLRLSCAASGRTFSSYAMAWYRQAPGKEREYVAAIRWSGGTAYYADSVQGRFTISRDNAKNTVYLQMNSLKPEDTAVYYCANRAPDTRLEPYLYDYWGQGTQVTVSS    0.0008 µM
DLLBII129B05 (VHH, not shown: small tags and cut ends) VHH: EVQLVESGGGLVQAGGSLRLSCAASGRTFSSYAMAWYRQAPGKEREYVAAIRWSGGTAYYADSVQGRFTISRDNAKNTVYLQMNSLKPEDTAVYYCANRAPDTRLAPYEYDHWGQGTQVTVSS    0.0011 µM
DLLBII101G08 (VHH, not shown: small tags and cut ends, parent VHH; also called 101G08 (wt); 101G8) VHH: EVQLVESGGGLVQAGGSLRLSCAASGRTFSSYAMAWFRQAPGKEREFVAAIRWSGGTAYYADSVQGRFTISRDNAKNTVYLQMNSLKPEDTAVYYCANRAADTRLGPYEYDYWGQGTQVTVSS    0.06 µM

Turning now to a further record.
[ask] Need Kd, item DLLBII115A05 (VHH, not shown: small tags and cut ends, parent VHH; also called 115A05 (wt); 115A5) VHH: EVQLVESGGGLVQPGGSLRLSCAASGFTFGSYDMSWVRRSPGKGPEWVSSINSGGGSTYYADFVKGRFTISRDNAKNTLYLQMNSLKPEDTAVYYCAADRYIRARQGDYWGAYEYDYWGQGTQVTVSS
[reply] 0.053 µM

Sourced from patent US20140120095A1
